Data export: IC50 values recorded with Human immunodeficiency virus type 1 reverse transcriptase (Human immunodeficiency virus 1).

- test_smiles: "CC1=N/C(=C/c2ccccc2O)C(=O)N1Cc1ccncc1"
  IC50 [µM]: 3.5
- test_smiles: "CC1=N/C(=C/c2ccco2)C(=O)N1Cc1ccncc1"
  IC50 [µM]: 2.5
- test_smiles: "CC1=N/C(=C/c2ccc(Cl)cc2)C(=O)N1Cc1ccncc1"
  IC50 [µM]: 3.9
- test_smiles: "O=C1/C(=C\\c2ccc(Cl)cc2Cl)N=C(c2ccccc2)N1Cc1ccncc1"
  IC50 [µM]: 3.8

* * *

# system_tested: Human immunodeficiency virus type 1 reverse transcriptase (Human immunodeficiency virus 1) (UniProt Q72547)
# assay_procedure: Inhibition of HIV-1 reverse transcriptase at 20 ug after 1 hr by colorimetry
# cutoff 60% applies to inhibition; >= gives yes, < gives no

- test_smiles: "CC1=N/C(=C/c2ccc(Cl)cc2Cl)C(=O)N1Cc1ccncc1"
  assigned_label: "yes"
- test_smiles: "COc1cc(/C=C2/N=C(c3ccccc3)N(Cc3ccncc3)C2=O)cc(OC)c1OC"
  assigned_label: "no"
- test_smiles: "CC1=N/C(=C/c2ccco2)C(=O)N1Cc1ccncc1"
  assigned_label: "yes"
- test_smiles: "CC1=N/C(=C/c2ccc(Cl)cc2)C(=O)N1Cc1ccncc1"
  assigned_label: "yes"
- test_smiles: "CN(C)c1ccc(/C=C2/N=C(c3ccccc3)N(Cc3ccncc3)C2=O)cc1"
  assigned_label: "no"
- test_smiles: "CC1=N/C(=C/c2ccccc2O)C(=O)N1Cc1ccncc1"
  assigned_label: "yes"
- test_smiles: "O=C1/C(=C\\c2ccccc2O)N=C(c2ccccc2)N1Cc1ccncc1"
  assigned_label: "no"
- test_smiles: "COc1ccc(/C=C2/N=C(c3ccccc3)N(Cc3ccncc3)C2=O)cc1"
  assigned_label: "no"
